// reported Ki per item
# Assayed Target: second (BD2: amino acids E352-E168) bromodomain of BRD4 (Homo sapiens, UniProt O60885)
# Construct: protocol
# Method Summary: TR-FRET bromodomain binding assay, BRD4 BD2
# Measurement Context: TR-FRET assay protocol (A-G, compound concentration range); Ki calculated from IC50, probe Kd and probe concentration; read-out: TR-FRET Binding Ki: BRD4 (BDII_E352-M457)
Give the quantity in nM, number only.

Example results:
Compound	Assayed Target	Unit Info	Ki
Cn1nc(-c2ccccc2Oc2ccccc2)c(-c2ccc(C(=O)NCc3ccccc3)cc2)cc1=O [Example 182]	second (BD2: amino acids E352-E168) bromodomain of BRD4 (Homo sapiens, UniProt O60885)	nM	174
Cn1nc(-c2ccccc2Oc2ccccc2)c(-c2ccc(CNS(C)(=O)=O)cc2)cc1=O [Example 98]	second (BD2: amino acids E352-E168) bromodomain of BRD4 (Homo sapiens, UniProt O60885)	nM	71.2
CCOc1cc(=O)n(C)cc1-c1cc(NC(=O)CC(C)(C)C)ccc1Oc1ccc(F)cc1F [Example 296]	second (BD2: amino acids E352-E168) bromodomain of BRD4 (Homo sapiens, UniProt O60885)	nM	104

Measured Ki for this entry CCOC(=O)Nc1ccc(Oc2ccccc2)c(-c2nn(C)c(=O)cc2OC)c1 [Example 29] on second (BD2: amino acids E352-E168) bromodomain of BRD4 (Homo sapiens, UniProt O60885): 950

// compound Cn1cc(-c2cc(NS(C)(=O)=O)ccc2Oc2ccc(F)cc2F)c(-c2ccc(N3CCOCC3)cc2)cc1=O [Example 274] , assay second (BD2: amino acids E352-E168) bromodomain of BRD4 (Homo sapiens, UniProt O60885), Ki value: 5.5

With second (BD2: amino acids E352-E168) bromodomain of BRD4 (Homo sapiens, UniProt O60885) as the test system, CCS(=O)(=O)Nc1ccc(Oc2ccc(F)cc2F)c(-c2cn(C)c(=O)cc2OCC(C)C)c1 [Example 290] showed Ki of 3.22

Simply: CCOc1cc(=O)n(C)cc1-c1cc(NS(=O)(=O)CC)ccc1Oc1ccc(C#N)cc1 [Example 358] , second (BD2: amino acids E352-E168) bromodomain of BRD4 (Homo sapiens, UniProt O60885), Ki = 7.61

###

# Assayed Target: second (BD2: amino acids E352-E168) bromodomain of BRD4 (Homo sapiens)
# Construct: protocol
# Method Summary: TR-FRET bromodomain binding assay, BRD4 BD2
# Measurement Context: TR-FRET assay protocol (A-G, compound concentration range); Ki calculated from IC50, probe Kd and probe concentration; read-out: TR-FRET Binding Ki: BRD4 (BDII_E352-M457)
Result Type: pKi
Please keep in mind that pKi is minus log10 of the molar concentration; only the number is needed.

Record excerpt, results attached:
Compound	Assayed Target	Obs Value
CCOc1cc(=O)n(C)cc1-c1cc(NS(=O)(=O)c2ccc(S(C)(=O)=O)cc2)ccc1Oc1ccc(F)cc1F [Example 307]	second (BD2: amino acids E352-E168) bromodomain of BRD4 (Homo sapiens)	7.38
Cn1cc(-c2cc(NC(=O)CNC(=O)OC(C)(C)C)ccc2Oc2ccccc2)ccc1=O [Example 252]	second (BD2: amino acids E352-E168) bromodomain of BRD4 (Homo sapiens)	6.16

Note to self: pKi recorded for Cn1nc(-c2ccccc2Oc2ccccc2)c(-c2cncc3ccccc23)cc1=O [Example 118] was 4.76

Just so you know, measured pKi for Cn1nc(-c2ccccc2Oc2ccccc2)c(C2CCN(C(=O)OC(C)(C)C)CC2)cc1=O [Example 86] came out at 5.56

Looking up CCOc1cc(=O)n(C)cc1-c1cc(NC(=O)c2ccccc2CCc2ccccc2)ccc1Oc1ccc(F)cc1F [Example 302] , I found its pKi recorded as 7.33

In plain terms, Cc1nnc(-c2cccc(-c3cc(=O)n(C)nc3-c3ccccc3Oc3ccccc3)c2)o1 [Example 176] has a documented pKi of 5.68

// pKi value for CCOC(=O)c1cccc(-c2cc(=O)n(C)nc2-c2ccccc2Oc2ccccc2)c1 [Example 59] : 5.68

Field pKi (entry Cc1ccc(-c2cc(=O)n(C)nc2-c2ccccc2Oc2ccccc2)cc1N [Example 64] ) reads 6.29

Lookup result for CC1CCN(C(=O)c2cccc(-c3cc(=O)n(C)nc3-c3ccccc3Oc3ccccc3)c2)CC1 [Example 154] ; measured pKi: 5.23

Looking up COc1cc(=O)n(C)nc1-c1ccccc1OC1CCCCC1 [Example 39] , I see its pKi listed as 4.84

Measured pKi, COc1cc(=O)n(C)nc1-c1ccccc1Oc1ccc(Cl)cc1 [Example 37] : 5.75

Entry CN(C)C(=O)c1cccc(-c2cc(=O)n(C)nc2-c2ccccc2Oc2ccccc2)c1 [Example 109] ; pKi = 5.82

Short answer for CC(=O)N1CC=C(c2cc(=O)n(C)nc2-c2ccccc2Oc2ccccc2)CC1 [Example 84] : pKi was 6.00

Per the records, this compound ( CCS(=O)(=O)Nc1ccc(Oc2ccc(OC3CCN(C(=O)OC(C)(C)C)CC3)cc2F)c(-c2cn(C)c(=O)cc2OC2CCN(C(=O)OC(C)(C)C)CC2)c1 [Example 320] ) has pKi equal to 6.56
